- Target Desc: the molecule itself
- Experiment Description: steric trap, PE/PC
Measurement Type: Kd (pM)
Give the quantity in pM, number only.

The protein Glycophorin A TM domain (SNGpATM) TMD (protein) GERVQLAHHFSEPEITLIIFGVMAGVIGTILLISYGIRRLIKKSPSDVKPLPSPDTDVPLSSVEIENPETSDQ showed Kd equal to 0.21
